Here, each record is paired with measured Kd data.
# system.under.test: Pan-species-specific antigen Plasmodium Lactate DeHydrogenase (Pan-PLDH) protein
# method.description: indirect ELISA at four coating concentrations, KD calculated from half-maximal OD

binder	Kd [nM]
Mutation 1-48 (antibody, mouse IgG2b, kappa, V domains shown) VH: QVQLQQPGAELVRPGASVKLSCKASGYSFTNYWMNWVKQRPGQGLEWIGMIHPSDSETRINQKFKDKATLTVDKSSSTAYMQLSSLTAEDSAVYYCAKSGDFYTYYFDYWGQGTTLTVSS VL: DIQLTQSPASLSASVGETVTITCRGSGNLHNYLAWYQQKQGKSPQLLVYNAKTLADGVPSRFSGSGSGTQYSLKINSLQPEDFGSYYCQYFWSTYTFGGGTKLEIKR	0.336
Mutation 1-51 (antibody, mouse IgG2b, kappa, V domains shown) VH: QVQLQQPGAELVRPGASVKLSCKASGSSFTNYWMNWVKQRPGQGLEWIGMIHPSESETRINQKFKDKATLTVDKSSSTAYMQLSSLTAEDSAVYYCAKSGEFYTYYFDYWGQGTTLTVSS VL: DIQLTQSPASLSASVGETVTITCRGTGNVHNYLAWYQQKQGKSPQLLVYNARTLADGVPSRFSGSGSGTQYSLKINSLQPEDFGSYYCQTFWSTYTFGGGTKLEIKR	0.526
Mutation 1-9 (antibody, mouse IgG2b, kappa, V domains shown) VH: QVQLQQPGAELVRPGASVKLSCKASGSSFTNYWMNWVKQRPGQGLEWIGMIHPSESETRINQKFKDKATLTVDKSSSTAYMQLSSLTAEDSAVYYCARSGEFYTSYFDYWGQGTTLTVSS VL: DIQLTQSPASLSASVGETVTITCRGSGNVHNYLAWYQQKQGKSPQLLVYNARTLADGVPSRFSGSGSGTQYSLKINSLQPEDFGSYYCQSFWSTYTFGGGTKLEIKR	0.616
Mutation 1-47 (antibody, mouse IgG2b, kappa, V domains shown) VH: QVQLQQPGAELVRPGASVKLSCKASGTSFTNYWMNWVKQRPGQGLEWIGMIHPSESETRVNQKFKDKATLTVDKSSSTAYMQLSSLTAEDSAVYYCAKSGDFYTSYFDYWGQGTTLTVSS VL: DIQLTQSPASLSASVGETVTITCRGSGNLHNYLAWYQQKQGKSPQLLVYNARTLADGVPSRFSGSGSGTQYSLKINSLQPEDFGSYYCQTFWSTYTFGGGTKLEIKR	0.454
Mutation 1-16 (antibody, mouse IgG2b, kappa, V domains shown) VH: QVQLQQPGAELVRPGASVKLSCKASGYSFTNYWMNWVKQRPGQGLEWIGMIHPSESETRLNQKFKDKATLTVDKSSSTAYMQLSSLTAEDSAVYYCAKSGEFYTYYFDYWGQGTTLTVSS VL: DIQLTQSPASLSASVGETVTITCRGSGNIHNYLAWYQQKQGKSPQLLVYNARTLADGVPSRFSGSGSGTQYSLKINSLQPEDFGSYYCQSFWSTYTFGGGTKLEIKR	0.411
